Test system: THP-1 viability, CellTiter-Glo luminescence, 72 h
Assay: PubChem AID 2252
experimental endpoint: EC50

Query :: # input molecule: CCc1ccc(NC(=O)C[n+]2cc(-c3ccc(C)cc3)n3c2CCC3)cc1 ; wanted: its EC50
Result :: 5.71 µM

Query :: Tell me the measured EC50 of OCCN1CCN(CCCN2c3ccccc3Sc3ccc(C(F)(F)F)cc32)CC1 , please.
Result :: 12.7 µM

Query :: Name the recorded EC50 for Fc1ccc(NC(=S)Nc2cc(-c3ccccc3)[nH]n2)cc1Cl .
Result :: 41.9 µM

Query :: Quick check: EC50 of O=C(CN1CC[n+]2c(-c3cccs3)csc21)c1ccc(-c2ccccc2)cc1 ?
Result :: 13 µM

Query :: May I ask what EC50 has been recorded for c1ccc(CNc2nc(-c3ccccn3)nc3ccccc23)cc1 ?
Result :: 1.72 µM

Query :: Suppose we examine the molecule CC(C)C1N=C(c2ccc3c(c2)OCO3)CC(c2ccccc2O)N1 (configuration not stated) ; what EC50 value has been reported?
Result :: 43.3 µM

Query :: Would you mind telling me what EC50 value was observed for Cc1cc(NC2CCCCC2)nc(NCc2ccccc2)n1 ?
Result :: 14.9 µM

Query :: Which EC50 value belongs to CCOC(=O)c1c(-c2ccc(-c3ccccc3)cc2)csc1NC(=O)CNCCN(C)C ?
Result :: 7.38 µM

Query :: I have this molecule here, Nc1nc2ccccc2n1CCOc1ccccc1Cl , and I need its recorded EC50.
Result :: 16.6 µM

Query :: Fill blank: measured EC50 of the molecule COc1ccc(C(=O)CSc2nnc(-c3cnccn3)n2Cc2ccco2)cc1 is ____.
Result :: < 0.1 µM

Query :: Consider the molecule shown here: CNc1ccc(SC#N)cc1 What is its recorded EC50?
Result :: 33.7 µM

Query :: Find the recorded EC50 belonging to Cc1ccc(C(OCC(O)CNCc2ccc(F)cc2)c2ccccc2)cc1 (configuration not stated) and report it.
Result :: 13 µM

Query :: Quick one: EC50 of CCOC(=O)c1ccccc1-n1c(C)cc(C2N=C(N)Nc3nc4ccccc4n32)c1C (configuration not stated) ?
Result :: 6.21 µM

Query :: What value of EC50 has been recorded for this entry: O=C(Nc1nnc(-c2cccs2)o1)c1cccc(Oc2ccccc2)c1
Result :: 18.6 µM

Query :: Field request: EC50 | item: O=C(Nc1c2ccccc2nc2ccccc12)C(Cl)(Cl)Cl
Result :: 20 µM

Query :: Need EC50, item CC(=O)NC(c1ccc(Cl)cc1Cl)c1ccc2cccnc2c1O (configuration not stated)
Result :: 7.25 µM

Query :: Which EC50 value is on record for O=C(Cc1cccs1)N/N=C\c1ccc([N+](=O)[O-])s1 ?
Result :: 12.5 µM

Query :: Recorded EC50 for O=C(N/N=C/c1cc(Cl)cc(Cl)c1O)c1ccncc1 , please?
Result :: 5.38 µM

Query :: Look at this molecule and give its reported EC50. CCCCCNc1nc(N2CCCC2)c2c(c1C#N)CCN(C)C2
Result :: 23.3 µM

Query :: Look up EC50 for this molecule: Clc1cc(Br)ccc1OCCCNCc1ccccc1
Result :: 14.7 µM

Query :: What value of EC50 has been recorded for this entry: O=C(Nc1cccc(NC(=O)c2ccccc2Cl)c1)c1ccc([N+](=O)[O-])o1
Result :: 2.11 µM

Query :: I am curious: what EC50 value has been reported for O=C(Nc1csc(Cl)c1)c1ccccc1 ?
Result :: < 0.1 µM

Query :: Look up EC50 for this molecule: CCOC(=O)c1nc(C)n(-c2cc(Cl)ccc2Cl)n1
Result :: 14.9 µM

Query :: // EC50 lookup, key: C(=N\Nc1nc2ccccc2[nH]1)/c1ccc2ncccc2c1
Result :: 15.6 µM

Query :: Fill blank: measured EC50 of the molecule COc1ccc(/C=N/NC(=O)c2ccc3c(c2)OCO3)cc1 is ____.
Result :: 48.7 µM

Query :: Entry CC1CC(=O)c2c(cc3c(-c4c(O)cc(O)c5c(O)c6c(cc45)OC(C)CC6=O)c(O)cc(O)c3c2O)O1 (configuration not stated) has what EC50?
Result :: < 0.1 µM

Query :: Query: EC50; subject: CC(NCc1ccccc1O)C12CC3CC(CC(C3)C1)C2 (configuration not stated)
Result :: 41.6 µM

Query :: Any idea what EC50 was measured for O=[N+]([O-])c1cccnc1S(=O)(=O)c1ccccc1 ?
Result :: 1.77 µM

Query :: Entry O=C(/C=C/c1ccco1)NC(=S)Nc1cccc(-c2nc3ccccc3o2)c1 has what EC50?
Result :: < 0.1 µM

Query :: Entry under review: Clc1ccc(Nc2ccc(NCc3ccccc3)nn2)cc1 . Reported EC50?
Result :: 22.4 µM

Query :: Give its EC50 value. Item: COc1ccc2c(C(=O)CCl)c[nH]c2c1
Result :: 11.2 µM

Query :: Give its EC50 value. Item: Fc1ccc(CCNCc2ccc(Cl)c(Cl)c2)cc1
Result :: 35.2 µM

----------
Please go through the items and note down their pEC50.
Test system: THP-1 viability, CellTiter-Glo luminescence, 72 h
Assay: PubChem AID 2252
pEC50 is defined as minus the log10 of a concentration measured in mol/L.

Query :: What does the data say about its pEC50? Entry: Cc1ccccc1C(=O)Nc1cccc(C(=O)N/N=C/c2cc(Cl)cc([N+](=O)[O-])c2O)c1
Result :: 4.91

Query :: # input compound: Clc1ccc(OCCCNCc2ccccc2)c(Br)c1 ; wanted: its pEC50
Result :: 4.86

Query :: Requested field: pEC50. Item: CCCCOc1ccc(C(=O)OC2CC(C)N(C)CC2C)cc1 (stereo not given)
Result :: 4.51

Query :: Return reported pEC50; argument: COc1ccc(CNc2ncnc3c2[nH]c2ccccc23)cc1
Result :: 4.41

Query :: Recorded pEC50 for CC(=O)NC(c1ccc2ccccc2c1)c1ccc2cccnc2c1O (stereo not given) , please?
Result :: 6.44

----------
Test system: THP-1 viability, CellTiter-Glo luminescence, 72 h
Experiment: PubChem AID 2252
experimental endpoint: EC50

Query :: I have this compound here, O=C(N=Nc1c(O)[nH]c2ccccc12)c1cc(-c2cccs2)[nH]n1 , and I need its recorded EC50.
Result :: < 0.1 µM

Query :: Please look up its EC50: Oc1cccc(C=NCc2ccccc2)c1O
Result :: 38.9 µM

Query :: What value of measured EC50 is listed for CCCCn1c(NS(=O)(=O)c2ccccc2)c(S(=O)(=O)c2ccc(C)cc2)c2nc3ccccc3nc21 ?
Result :: 12 µM

Query :: For Cc1ccc2c(c1)sc(-c1ccc(N(C)C)cc1)[n+]2C , what is its reported EC50?
Result :: 4.02 µM

Query :: Can you share its EC50? I mean this compound: COc1cc([N+](=O)[O-])cc(/C=N/NC(=O)CSc2ccccn2)c1O
Result :: 34.7 µM

Query :: Give the measured EC50 of Cc1ccc(C[n+]2c(-c3ccc(C)cc3)cc(-c3ccc(C)cc3)cc2-c2ccc(C)cc2)cc1 .
Result :: 0.22 µM

Query :: Entry COc1cccc(/C=N\NC(=O)Cn2nnc3ccccc32)c1O has what EC50?
Result :: 14.6 µM

Query :: I am curious: what EC50 value has been reported for Clc1ccc(OCCCNCc2ccccc2)c2ccccc12 ?
Result :: 23.4 µM

Query :: Entry O=C(Nc1cccc(Cl)c1)Nc1nccs1 : reported EC50 = ?
Result :: 33.8 µM

Query :: Fill in the blank: the reported EC50 of Cc1ccc2c(c1)c1c(n2CC(O)CN2CCC(C)CC2)CCCC1 (centres undefined) is ____.
Result :: 16 µM

Query :: Name the recorded EC50 for OC(CNCCc1ccc(C(F)(F)F)cc1)COC(c1ccccc1)c1ccccc1 (centres undefined) .
Result :: 15.9 µM

Query :: Request the reported EC50 associated with O=C(CCc1ccccc1)NNC(=S)NC(=O)c1ccccc1
Result :: 10.9 µM

Query :: Looking for the measured EC50 of CCCOc1ccc(CSC2=NCCN2)cc1[N+](=O)[O-] , can you help?
Result :: 20.8 µM

Query :: Which value of EC50 has been reported for CC(=O)c1c(C)nc(-c2cccc([N+](=O)[O-])c2)n1O in the records?
Result :: < 0.1 µM

Query :: I am curious: what EC50 value has been reported for C[n+]1c2n(c3ccccc31)N=C(c1ccc(-c3ccccc3)cc1)CS2 ?
Result :: 3.89 µM

Query :: What EC50 value was documented for this compound, Cc1ccc(-c2cc(N)nc(-c3ccccc3)c2)cc1 ?
Result :: 28.6 µM

Query :: Reported EC50 for CCN1CCN(CCNC(=O)c2ccc3c(c2)N(Cc2ccc(F)cc2)C(=O)/C(=C/c2ccccc2)S3)CC1 : what is it?
Result :: 9.43 µM

Query :: Look up EC50: O=C(NC(=S)NNC(=O)c1ccccc1O)c1ccco1
Result :: 17.2 µM

Query :: Suppose we examine the compound COc1ccc(/C=C/c2cc[n+](C(=O)Cc3ccccc3)cc2)cc1 ; what EC50 value has been reported?
Result :: 3.92 µM

Query :: Value lookup for EC50; key = NC1=C(Br)C(=O)c2ccccc2C1=O
Result :: 9 µM

Query :: What EC50 value was documented for this compound, O=C(c1cccs1)c1no[n+]([O-])c1C(=O)c1cccs1 ?
Result :: 1.89 µM

Query :: # get_value(readout='EC50', item= N=c1c2c(n(Cc3ccc(Cl)cc3)c3c1CCC3)CCC2 )
Result :: 11.3 µM

Query :: Return reported EC50; argument: O=C(CN1C2=NCCCN2c2ccccc21)c1ccc([N+](=O)[O-])cc1
Result :: 32.5 µM

Query :: Which measured EC50 value corresponds to CC1CCN(c2nc3ccc(C(=O)NCCCN4CCCCC4)cc3s2)CC1 ?
Result :: 30.7 µM

Query :: For O=C1c2ccccc2NC(c2ccc(-c3ccc(Br)cc3)o2)N1O (centres undefined) , what is its reported EC50?
Result :: 10.6 µM

Query :: Please report the recorded EC50 for Cc1ccc(Nc2c3c(nc4ccccc24)CCC3)cc1 .
Result :: 9.1 µM

Query :: Data request, read-out EC50, for COc1cccc(Nc2nc(NCC3CCCO3)c3ccccc3n2)c1 (centres undefined)
Result :: 2.27 µM

Query :: Which EC50 is listed for CCCCCCCCCCCCCCCC[N+](C)(C)C ?
Result :: 1.43 µM

Query :: EC50 for NC1=NC[C@H](c2ccccc2)N1CCCCC1CCCCC1 ?
Result :: 6.36 µM

Query :: Name the recorded EC50 for COc1ccc(OCC(=O)Nc2ccc3c(c2)nc(CCN2CCC(C)CC2)n3C)cc1 .
Result :: 35.1 µM

Query :: What EC50 value was documented for this compound, CC[C@H](C)[C@@H](CN[C@H](C)CNC)NCCC(c1ccccc1)c1ccccc1 ?
Result :: 7.07 µM

Query :: Name the recorded EC50 for CCOC(=O)c1c(C)[nH]c(C(=O)CN2C(=O)NC(C)(c3ccc4ccccc4c3)C2=O)c1C (centres undefined) .
Result :: 39.1 µM

Query :: Please report the recorded EC50 for CCCCCCCCCCCCCCCC[n+]1ccc(/C=N/O)cc1 .
Result :: 0.3 µM

Query :: What does the data say about its EC50? Entry: Cc1cc(C)c2nc(C)cc(N/N=C/c3ccc(O)cc3)c2c1
Result :: 1.91 µM

Query :: EC50 for O=C(/C=C/c1cccs1)NC(=S)NNC(=O)c1ccccc1O ?
Result :: 2.79 µM

Query :: Need EC50 of C=C1c2c(Cl)ccc(O)c2C(O)=C2C(=O)[C@]3(O)C(O)=C(C(N)=O)C(=O)[C@@H](N(C)C)[C@@H]3[C@@H](O)C12 (some centres undefined) , thanks.
Result :: 13.4 µM

Query :: Report EC50 for CCOC(=O)CNC(=O)Cn1c(C)cc2ccccc2c1=O please.
Result :: 40.9 µM

Query :: I would be grateful if you could share the reported EC50 for O=C(NCCCN1CCN(c2ccc(F)cc2)CC1)Nc1ccc([N+](=O)[O-])cc1 .
Result :: 45.1 µM

Query :: I have this compound here, Cc1ccc(-n2c(-c3ccc(Br)cc3)c[n+]3c2CCc2ccc4cccnc4c2-3)cc1 , and I need its recorded EC50.
Result :: 0.76 µM

Sourced from PubChem BioAssay AID2252
